# T/C annotations
Tested on: P388
Assay: In-vivo antileukemic activity against mouse P388 cells assessed as host survival at 10 mg/kg qd relative to control
Assay type: functional

Substance Smiles	T/C
CC(=O)OS(=O)(=O)[O-].COc1cc2cc[n+]3c(C)c4ccc(OC)c(OC)c4cc3c2cc1OC	136
CC(=O)OS(=O)(=O)[O-].COc1cc2cc3c4cc(OC)c(OC)cc4cc[n+]3c(C)c2cc1OC	159
CC(=O)OS(=O)(=O)[O-].COc1cc2c[n+](C)c3c4ccc(OC)c(OC)c4ccc3c2cc1OC	149
CC(=O)OS(=O)(=O)[O-].COc1cc2cc3cc4cc(OC)c(OC)cc4c(C)[n+]3cc2cc1OC	145
